From: patent US20260250318A1

System: brains, heart, liver, muscle, and DRG of the NHPs
test summary: Maturation of TTM-001 and TTM-002 capsids, NGS enrichment in NHP tissues
Format: in vivo
measurement context: NGS fold-enrichment, muscle of NHPs, relative to AAV9 control
value type: Fold Enrichment relative to AAV9, Muscle (NHP) (fold)
Give the value in fold but do not write fold after it.

KTINGSGSPHSKTKSQQT	0.045

In plain terms, KEINGRGSPHSKAQNQQT has a documented Fold Enrichment relative to AAV9, Muscle (NHP) of 0.000

In plain terms, KTINGSGSPHSKAQNTYA has a documented Fold Enrichment relative to AAV9, Muscle (NHP) of 0.000

In plain terms, KTEKVSGSPHSKAQNQQT has a documented Fold Enrichment relative to AAV9, Muscle (NHP) of 0.000

In plain terms, KTISGSGSPHSKAQYQHT has a documented Fold Enrichment relative to AAV9, Muscle (NHP) of 0.000

In plain terms, KTERLSGSPHSKAQNQQT has a documented Fold Enrichment relative to AAV9, Muscle (NHP) of 0.005

In plain terms, KTERISGSPHSKAQNQQT has a documented Fold Enrichment relative to AAV9, Muscle (NHP) of 0.000

In plain terms, KTIIGGGSPHSKAHNQQT has a documented Fold Enrichment relative to AAV9, Muscle (NHP) of 0.000

In plain terms, KTVNGSGSPHSKAQNQLI has a documented Fold Enrichment relative to AAV9, Muscle (NHP) of 0.000
